Each item that follows carries a reported shrunken log2 fold change.
- Test system: Escherichia coli TOP10
- test method notes: shrunken log2 fold change of peptide-encoding DNA abundance (4.5 h post-induction vs induction); higher = less antimicrobial activity (less host growth inhibition)
- condition details: time post-induction: 4.5 h; library: site-saturation at positions 5, 18, 19, 20
Please state the value as a number alone, without comment.

- input sequence: "RRIRLRPPRLPRPRPRPIIDPRP"
  reported value: -0.256
- input sequence: "RRIRWRPPRLPRPRPRPNWLPRP"
  reported value: 0.0255

Input: Requested read-out: shrunken log2 fold change. Entry: `RRIRHRPPRLPRPRPRPCPSPRP`
Output: 0.0144

Input: Try `RRIRGRPPRLPRPRPRPHMGPRP` next.
Output: 0.121

Input: Try this sequence too: `RRIRCRPPRLPRPRPRPEDMPRP`
Output: 0.176

Input: Moving on to `RRIRSRPPRLPRPRPRPCKRPRP`
Output: -0.326

Input: Okay, and `RRIRWRPPRLPRPRPRPPNLPRP` ?
Output: -0.24

Input: Also need `RRIRSRPPRLPRPRPRPGPHPRP` , thanks.
Output: -0.109

----------
- Tested on: Escherichia coli TOP10
- test method notes: shrunken log2 fold change of peptide-encoding DNA abundance (4.5 h post-induction vs induction); higher = less antimicrobial activity (less host growth inhibition)
- condition details: time post-induction: 4.5 h; library: site-saturation at positions 5, 18, 19, 20
Rule: shrunken log2 fold change of -0.3 or more gives Criterion met; anything lower gives Criterion not met.

Known results for sequences:
- input sequence: "RRIRERPPRLPRPRPRPLQYPRP"
  experimental system: "Escherichia coli TOP10"
  class name: "Criterion met"
- input sequence: "RRIRSRPPRLPRPRPRPHNGPRP"
  experimental system: "Escherichia coli TOP10"
  class name: "Criterion met"
- input sequence: "RRIRHRPPRLPRPRPRPYCTPRP"
  experimental system: "Escherichia coli TOP10"
  class name: "Criterion met"

Input: Textbook exercise: given the entry `RRIRVRPPRLPRPRPRPQYNPRP` , state whether its shrunken log2 fold change is greater than or equal to -0.3.
Output: Criterion not met

Input: Next up: `RRIRERPPRLPRPRPRPFCAPRP`
Output: Criterion met

Input: Same read-out for `RRIRERPPRLPRPRPRPWYFPRP` ?
Output: Criterion met

Input: // next record `RRIRERPPRLPRPRPRPRHFPRP`
Output: Criterion not met

Input: Further, for `RRIRIRPPRLPRPRPRPNWIPRP` ?
Output: Criterion not met

----------
- Tested on: Escherichia coli TOP10;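 note: peptides expressed intracellularly from a pBAD plasmid library in pooled LB shake-flask culture, induced with 0.3% L-arabinose, DNA abundance read by NGS, three biological replicates, DESeq2 with apeglm shrinkage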
- test method notes: shrunken log2 fold change of peptide-encoding DNA abundance (4.5 h post-induction vs induction); higher = less antimicrobial activity (less host growth inhibition)
- condition details: time post-induction: 4.5 h; library: site-saturation at positions 5, 18, 19, 20
Outcome: label 1 for shrunken log2 fold change of at least 0.05; label 0 for anything lower.

Consider the following illustrative entries.
- input sequence: "RRIRCRPPRLPRPRPRPSRAPRP"
  class name: "label 1"
- input sequence: "RRIRFRPPRLPRPRPRPYGPPRP"
  class name: "label 0"
- input sequence: "RRIRLRPPRLPRPRPRPRLHPRP"
  class name: "label 0"
- input sequence: "RRIRSRPPRLPRPRPRPDSFPRP"
  class name: "label 0"
- input sequence: "RRIRKRPPRLPRPRPRPWQFPRP"
  class name: "label 1"

Now let's try a different one.
Input: Entry `RRIRKRPPRLPRPRPRPYPDPRP` : is its shrunken log2 fold change no less than 0.05?
Output: label 0
